Each recorded value in this set is attributed to the supplement of paper PMC10515830.

In this section, each of the molecules is paired with its reported difference in startle response.
Test system: Danio rerio larvae (5 dpf)
assay-procedure: difference in startle response vs DMSO (percentage points); higher = stronger startle than DMSO
run-parameters: 10 µM; exposure time 6 h
Structures can show the parent of a compound that is named as a salt.

Study these solved cases before continuing.
CN(C/C=C/c1ccccc1)Cc1cccc2ccccc12 [Naftifine (hydrochloride)] | -5.96
N=C(N)NCCC[C@@H](NC(=O)[C@@H]1CCCN1C(=O)[C@@H]1CSSCCC(=O)N[C@@H](Cc2ccc(O)cc2)C(=O)N[C@@H](Cc2ccccc2)C(=O)N[C@@H](CCC(N)=O)C(=O)N[C@@H](CC(N)=O)C(=O)N1)C(=O)NCC(N)=O [Desmopressin (trifluoroacetate salt)] | -0.652
CC(C)(C)NC(=O)[C@@H]1C[C@@H]2CCCC[C@@H]2CN1C[C@@H](O)[C@H](Cc1ccccc1)NC(=O)[C@H](CC(N)=O)NC(=O)c1ccc2ccccc2n1 [Saquinavir (mesylate)] | -1.02
CC(N)C12CC3CC(CC(C3)C1)C2 (stereo unspecified) [Rimantadine (hydrochloride)] | -0.673
CC1=C(CC(=O)O)c2cc(F)ccc2/C1=C\c1ccc([S+](C)[O-])cc1 (stereo unspecified) | 0.529
C=C1CC[C@H](O)C/C1=C/C=C1\CCC[C@]2(C)[C@@H]([C@H](C)CCCC(C)(C)O)CC[C@@H]12 [25-hydroxy Vitamin D3] | -8.24
N=C(N)N/N=C/c1c(Cl)cccc1Cl [Guanabenz (hydrochloride)] | 17.3
CC(C)(C)NC(=O)[C@H]1CC[C@H]2[C@@H]3CC[C@H]4NC(=O)C=C[C@]4(C)[C@H]3CC[C@]12C [Finasteride] | 3.35
CCN1CCN(C(=O)N[C@@H](C(=O)N[C@@H]2C(=O)N3[C@@H]2SC(C)(C)[C@@H]3C(=O)O)c2ccccc2)C(=O)C1=O [Piperacillin (sodium salt)] | 2.6
Clc1ccc(C(Cn2ccnc2)OCc2csc3c(Cl)cccc23)c(Cl)c1 (stereo unspecified) [Sertaconazole (nitrate)] | -8.13

Fill in difference in startle response for Nc1nc2c(ncn2COCCO)c(=O)[nH]1 tested with Danio rerio larvae (5 dpf).
2.62

// fetch difference in startle response for CCCCCCCCCC(=O)N[C@@H](Cc1c[nH]c2ccccc12)C(=O)N[C@H](CC(N)=O)C(=O)N[C@@H](CC(=O)O)C(=O)N[C@@H]1C(=O)NCC(=O)N[C@@H](CCCN)C(=O)N[C@@H](CC(=O)O)C(=O)N[C@H](C)C(=O)N[C@@H](CC(=O)O)C(=O)NCC(=O)N[C@H](CO)C(=O)N[C@@H]([C@H](C)CC(=O)O)C(=O)N[C@@H](CC(=O)c2ccccc2N)C(=O)O[C@@H]1C ; system: Danio rerio larvae (5 dpf)
1.46

Lab note: record difference in startle response of CN(C)CC(c1ccc(O)cc1)C1(O)CCCCC1 (racemic) [(±)-O-Desmethyl Venlafaxine] tested on Danio rerio larvae (5 dpf).
-5.6

###

System: Danio rerio larvae (5 dpf)
assay-procedure: difference in combined optomotor response to red, green and blue moving lines vs DMSO (percentage points); higher = stronger optomotor response than DMSO
run-parameters: 10 µM; exposure time 6 h
Where a name gives a salt, the structure may show the parent alone.
readout: difference

COc1ccc(CCN(C)CCCC(C#N)(c2ccc(OC)c(OC)c2)C(C)C)cc1OC (stereo not drawn) [Verapamil (hydrochloride)] | -6.45
COC(=O)C1=C(C)NC(C)=C(C(=O)OC(C)C)C1c1cccc2nonc12 (stereo not drawn) | -17.2
CNC(=O)c1cc(Oc2ccc(NC(=O)Nc3ccc(Cl)c(C(F)(F)F)c3)cc2)ccn1 | -2.71
C#C[C@]1(O)CC[C@H]2[C@@H]3CCc4cc(OC)ccc4[C@H]3CC[C@@]21C | -16.5
C=C1CC[C@H](O)C/C1=C/C=C1\CCC[C@]2(C)[C@@H]([C@H](C)/C=C/[C@H](C)C(C)C)CC[C@@H]12 [Vitamin D2] | 8.48
Cc1[nH]cnc1CN1CCc2c(c3ccccc3n2C)C1=O [Alosetron (hydrochloride)] | 8.63
CC(N)C12CC3CC(CC(C3)C1)C2 (stereo not drawn) [Rimantadine (hydrochloride)] | -3.34

We now examine a further compound.
Please tell me the measured difference for CC(C)C(=O)OCC(=O)[C@@]12O[C@H](C3CCCCC3)O[C@@H]1C[C@H]1[C@@H]3CCC4=CC(=O)C=C[C@]4(C)[C@H]3[C@@H](O)C[C@@]12C [Ciclesonide] ; system: Danio rerio larvae (5 dpf).
9.17
